# tgt: hER-α (Homo sapiens, UniProt P03372)
# Construct: expressed in transfected cells; host or cells: HELN (HeLa carrying a stably transfected estrogen-responsive luciferase reporter)
# Sequence (P03372 whole entry): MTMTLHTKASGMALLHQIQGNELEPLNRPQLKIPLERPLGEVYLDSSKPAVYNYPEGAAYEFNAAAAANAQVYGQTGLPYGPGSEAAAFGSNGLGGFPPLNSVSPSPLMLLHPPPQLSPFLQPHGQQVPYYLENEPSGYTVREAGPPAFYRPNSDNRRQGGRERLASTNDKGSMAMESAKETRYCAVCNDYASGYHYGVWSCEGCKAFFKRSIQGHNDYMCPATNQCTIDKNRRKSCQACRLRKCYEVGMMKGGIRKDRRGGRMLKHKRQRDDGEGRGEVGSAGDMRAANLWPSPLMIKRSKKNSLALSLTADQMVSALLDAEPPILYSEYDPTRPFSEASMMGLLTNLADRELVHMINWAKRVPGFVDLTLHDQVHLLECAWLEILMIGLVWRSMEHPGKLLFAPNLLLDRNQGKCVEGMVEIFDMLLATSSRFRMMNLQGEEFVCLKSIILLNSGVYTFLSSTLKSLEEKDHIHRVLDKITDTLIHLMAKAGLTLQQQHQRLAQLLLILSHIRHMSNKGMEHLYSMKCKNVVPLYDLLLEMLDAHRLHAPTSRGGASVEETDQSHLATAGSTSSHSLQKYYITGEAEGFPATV
# assay.info: cell-based
# Type: cell-based
# experimental.parameters: read-out: EC50, half-maximal luciferase activity, transcriptional activation through ER α; HELN ER-α cells, 16 h at 37 °C; maximal activity with 10 nM E2
observation.type: EC50 (nM)
# unit: nM | format: bare number

Considering C[C@H]1CCC[C@H](O)CCCCCc2cc(O)cc(O)c2C(=O)O1 , its EC50 with hER-α (Homo sapiens, UniProt P03372) was recorded as 0.49

====

# tgt: hER-β (Homo sapiens)
# Sequence (Q92731 whole entry): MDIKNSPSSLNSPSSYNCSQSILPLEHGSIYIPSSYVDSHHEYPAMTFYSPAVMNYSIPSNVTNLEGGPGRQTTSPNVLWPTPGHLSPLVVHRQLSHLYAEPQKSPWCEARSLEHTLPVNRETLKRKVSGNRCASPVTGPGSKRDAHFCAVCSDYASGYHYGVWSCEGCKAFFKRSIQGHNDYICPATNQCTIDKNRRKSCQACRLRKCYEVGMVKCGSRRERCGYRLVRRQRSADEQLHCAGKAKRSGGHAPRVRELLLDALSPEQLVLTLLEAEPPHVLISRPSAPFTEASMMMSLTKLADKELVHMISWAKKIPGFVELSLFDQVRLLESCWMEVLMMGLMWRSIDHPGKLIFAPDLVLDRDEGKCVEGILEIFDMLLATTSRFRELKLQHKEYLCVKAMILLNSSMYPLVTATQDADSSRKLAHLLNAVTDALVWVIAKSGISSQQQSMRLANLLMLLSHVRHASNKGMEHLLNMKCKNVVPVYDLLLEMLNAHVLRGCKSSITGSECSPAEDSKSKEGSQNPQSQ
# assay.info: cell-based
# experimental.parameters: read-out: EC50, half-maximal luciferase activity, transcriptional activation through ER β
observation.type: EC50 (nM)
# unit: nM | format: bare number

Per the records, this molecule ( C[C@H]1CCCC(=O)CCC/C=C/c2cc(O)cc(O)c2C(=O)O1 ) has EC50 equal to 11.5
